target.under.test: T1, Murine CTGF (Mus musculus, UniProt P29268)
T1 construct: purchased Abbexa
T1 sequence (P29268 26-348): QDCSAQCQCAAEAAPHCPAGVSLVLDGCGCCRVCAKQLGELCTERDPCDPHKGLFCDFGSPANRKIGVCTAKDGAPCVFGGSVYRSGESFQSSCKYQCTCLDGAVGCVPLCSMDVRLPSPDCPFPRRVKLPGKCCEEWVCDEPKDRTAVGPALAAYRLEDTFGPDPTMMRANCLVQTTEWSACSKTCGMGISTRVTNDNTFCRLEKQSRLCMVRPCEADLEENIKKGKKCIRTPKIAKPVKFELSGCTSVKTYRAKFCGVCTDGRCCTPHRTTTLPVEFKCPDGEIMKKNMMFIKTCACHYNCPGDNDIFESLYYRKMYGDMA
assay.method.text: SPR binding kinetics and affinity, murine CTGF
Set-up: key: B binding without determination of kinetics constants
condition: 25° C., 1:1 binding model
measurement.name: Murine CTGF koff

>>> reported_measurement("SEQ ID NO: 20: optimized CTGF-binding hNGAL lipocalin mutein (protein, lipocalin mutein) QDSTSDLIPAPPLSKVPLQQNFQDNQFQGKWYVVGLAGNAILREDKQPAKMFATIYELKEDKSYDVTSVRFEAKSCSYTIKTFVPGSQPGEFTAGNIKSAPGQTSTLVRVVSTNYNQHAMVFAKAVQLNREHFFITLYGRTKELTSELKENFIRFSKSLGLPENHIVFPVPIDQCIDG")
"B"
>>> reported_measurement("SEQ ID NO: 13: optimized CTGF-binding hNGAL lipocalin mutein (protein, lipocalin mutein) QDSTSDLIPAPPLSKVPLQQNFQDNQFQGKWYVVGLAGNAILREDKYPAKMFATIYELKEDKSYDVTSVRFENKSCVYTSKTFVPGSQPGEFTTGNIKSAPGQTSTLVRVVSTNYNQHAMVFFKHVSQNREFFVITLYGRTKELTSELKENFIRFSKSLGLPENHIVFPVPIDQCIDG")
"B"
>>> reported_measurement("SEQ ID NO: 3: parent CTGF-binding hNGAL lipocalin mutein (protein, lipocalin mutein) QDSTSDLIPAPPLSKVPLQQNFQDNQFHGKWYVVGRAGNNRLREDKDPPKMWATIYELKEDKSYNVTHVHFMTKKCRYIIDTFVPGSQPGEFTLGAIKSGPGMTSPLVRIVSTNYNQHAMVFFKWVNQNREWFTITLYGRTKELTSELKENFIRFSKSLGLPENHIVFPVPIDQCIDG")
"B"
